Tested on: Rhizoctonia bataticola
Assay Info: Fungitoxicity in culture media (agar), growth inhibition
Format: cell-based
Assay Context: Macrophomina phaseolina, 50% inhibition of growth, read-out: ED50 (the source's name)
Assay Readout: IC50
Reply with a number, then the unit it belongs to.

• COC(=O)C(Cl)CS(=O)(=O)c1cc(Cl)ccc1Cl (centres unmarked) [Example 3] = 50 µg/mL
• O=S(=O)(CC(Cl)Cl)c1cc(Cl)ccc1Cl [Example 1] = 5 µg/mL
• O=S(=O)(CC(Cl)Cl)c1cc(Br)ccc1Br [Example 7] = 20 µg/mL
• O=S(=O)(C=C(Cl)Cl)c1cc(Cl)ccc1Cl [Example 4] = 5 µg/mL

Sample O=S(=O)(CC(Cl)(Cl)Cl)c1cc(Cl)ccc1Cl [Example 2] ; IC50 observed: 10 µg/mL
